- Species on record: Rattus norvegicus
- testName: Inhibition of histamine release from sensitized rat mast cells in vitro
- Type: functional
- runConditions: Rattus norvegicus, Mast cell; read-out: EC50
assayEndpoint: pEC50
Please keep in mind that pEC50 is minus log10 of the molar concentration; only the number is needed.

The examples below pair each entry with its known result.
CC1CC/C(=N\Nc2ccc(F)cc2)c2ncc(C(=O)O)c(=O)n21 (stereo not drawn): 5.92
C[C@H]1CC/C(=N\Nc2ccc(O)cc2)c2ncc(C(=O)O)c(=O)n21: 4.58
CCOc1ccc(N/N=C2\CC[C@@H](C)n3c2ncc(C(=O)O)c3=O)cc1: 6.00
CC1CC/C(=N\Nc2ccccc2F)c2ncc(C(=O)O)c(=O)n21 (stereo not drawn): 5.92
CC1CC/C(=N\Nc2ccc(O)cc2)c2ncc(C(=O)O)c(=O)n21 (stereo not drawn): 5.89

Record CCOc1ccc(N/N=C2\CC[C@H](C)n3c2ncc(C(=O)O)c3=O)cc1 . Reported pEC50: 4.72

Reported pEC50 for Cc1ccc(N/N=C2\CCC(C)n3c2ncc(C(=O)O)c3=O)cc1 (stereo not drawn) was 6.55

# pEC50 of CC1CC/C(=N\Nc2ccc(Br)cc2)c2ncc(C(=O)O)c(=O)n21 (stereo not drawn) = 5.70
